Target: EGFR L858R/T790M/C797S (BaF3-LTC cells) (Homo sapiens, UniProt P00533, C797S/L858R/T790M)
Construct: expressed in transfected cells; host or cells: BaF3
Sequence (P00533 25-1210 T790M/C797S/L858R): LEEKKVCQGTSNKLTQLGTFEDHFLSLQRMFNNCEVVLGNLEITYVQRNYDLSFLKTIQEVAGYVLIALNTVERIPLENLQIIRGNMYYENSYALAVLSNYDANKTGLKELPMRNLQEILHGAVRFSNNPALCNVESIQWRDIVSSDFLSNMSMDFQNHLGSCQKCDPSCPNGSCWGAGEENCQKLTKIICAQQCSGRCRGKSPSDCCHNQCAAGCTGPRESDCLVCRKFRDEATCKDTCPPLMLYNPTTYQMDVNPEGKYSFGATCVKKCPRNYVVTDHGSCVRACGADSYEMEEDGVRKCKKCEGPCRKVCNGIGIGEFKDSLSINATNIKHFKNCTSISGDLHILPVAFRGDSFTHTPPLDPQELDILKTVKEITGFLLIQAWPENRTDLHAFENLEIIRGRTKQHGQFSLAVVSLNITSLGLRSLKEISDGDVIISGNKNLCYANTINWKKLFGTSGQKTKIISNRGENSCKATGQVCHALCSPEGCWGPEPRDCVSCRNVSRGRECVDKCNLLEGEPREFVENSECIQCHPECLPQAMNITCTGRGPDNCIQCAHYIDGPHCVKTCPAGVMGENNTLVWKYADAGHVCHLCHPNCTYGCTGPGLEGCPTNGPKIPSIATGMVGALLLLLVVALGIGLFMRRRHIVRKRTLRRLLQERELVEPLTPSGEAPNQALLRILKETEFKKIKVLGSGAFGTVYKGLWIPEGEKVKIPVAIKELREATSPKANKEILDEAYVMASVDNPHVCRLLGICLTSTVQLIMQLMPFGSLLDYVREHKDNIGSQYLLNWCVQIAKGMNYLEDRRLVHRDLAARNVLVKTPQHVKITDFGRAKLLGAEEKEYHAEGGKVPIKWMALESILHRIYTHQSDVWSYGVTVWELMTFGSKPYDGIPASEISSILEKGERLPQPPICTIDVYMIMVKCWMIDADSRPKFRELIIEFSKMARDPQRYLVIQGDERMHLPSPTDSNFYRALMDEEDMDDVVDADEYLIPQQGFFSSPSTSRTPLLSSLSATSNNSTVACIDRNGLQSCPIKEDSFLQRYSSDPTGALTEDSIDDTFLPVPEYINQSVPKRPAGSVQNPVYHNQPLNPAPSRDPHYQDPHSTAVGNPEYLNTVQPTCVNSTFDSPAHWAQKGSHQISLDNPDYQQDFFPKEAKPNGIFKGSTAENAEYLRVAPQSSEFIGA
Assay: EGFR degradation HTRF assay, BaF3-LTC cells
Assay type: cell-based
Conditions: BaF3-LTC cells; maximum percentage of inhibition (degradation); read-out: Dmax (%) BaF3-LTC
Entries get a class label from measured Dmax. See ranges: lower range (below 80%), middle range (80% to below 90%), upper range (90% or more)

Please review the entries below; each comes with its answer.
Compound	Tested on	Cat
CCOc1cc(N2CCC(N3CCN(CCc4cccc5c4C(C)(C)C(=O)N5C4CCC(=O)NC4=O)[C@H](CO)C3)CC2)c(CC)cc1Nc1ncc(Br)c(Nc2ccc3c(=O)n(CC)ncc3c2P(C)(C)=O)n1 (stereo partly drawn)	EGFR L858R/T790M/C797S (BaF3-LTC cells) (Homo sapiens, UniProt P00533, C797S/L858R/T790M)	upper range
CCOc1cc(N2CCC(N3CCN(CC4CN(c5cccc6c5n(C)c(=O)n6C5CCC(=O)NC5=O)C4)CC3)CC2)c(CC)cc1Nc1ncc(Br)c(Nc2ccc3c(=O)n(CC)ncc3c2P(C)(C)=O)n1 (stereo not drawn)	EGFR L858R/T790M/C797S (BaF3-LTC cells) (Homo sapiens, UniProt P00533, C797S/L858R/T790M)	upper range
CCOc1cc(N2CCC(N3CCN(CCc4cc(OC)cc5c4oc(=O)n5C4CCC(=O)NC4=O)CC3)CC2)c(CC)cc1Nc1ncc(Br)c(Nc2ccc3nc(CC)ccc3c2P(C)(C)=O)n1 (stereo not drawn)	EGFR L858R/T790M/C797S (BaF3-LTC cells) (Homo sapiens, UniProt P00533, C797S/L858R/T790M)	lower range

Prompt: Just checking, what class would you give CCOc1cc(N2CCC(N3CCN(CCc4cc(Cl)cc5c4oc(=O)n5C4CCC(=O)NC4=O)CC3)CC2)c(CC)cc1Nc1ncc(Br)c(Nc2ccc3c(=O)n(CC)ncc3c2P(C)(C)=O)n1 (stereo not drawn) here?
Completion: lower range

Prompt: Just checking, what class would you give CCOc1cc(N2CCC(N3CCN(CCc4ccc5c(oc(=O)n5C5CCC(=O)NC5=O)c4F)CC3)CC2)c(CC)cc1Nc1ncc(Br)c(Nc2ccc3nc(CC)ccc3c2P(C)(C)=O)n1 (stereo not drawn) here?
Completion: upper range

Prompt: Just checking, what class would you give CCOc1cc(N2CCC(N3CCN(CCc4ccc5c(c4)oc(=O)n5C4CCC(=O)NC4=O)CC3)CC2)c(C)cc1Nc1ncc(Br)c(Nc2ccc3nc(CC)ccc3c2P(C)(C)=O)n1 (stereo not drawn) here?
Completion: middle range

###

Target: EGFR (HCC827 cells) (Homo sapiens, UniProt P00533, DEL746-750)
Construct: endogenous in cells; host or cells: HCC827
Sequence (P00533 with tags, fused parts or gaps DEL746-750): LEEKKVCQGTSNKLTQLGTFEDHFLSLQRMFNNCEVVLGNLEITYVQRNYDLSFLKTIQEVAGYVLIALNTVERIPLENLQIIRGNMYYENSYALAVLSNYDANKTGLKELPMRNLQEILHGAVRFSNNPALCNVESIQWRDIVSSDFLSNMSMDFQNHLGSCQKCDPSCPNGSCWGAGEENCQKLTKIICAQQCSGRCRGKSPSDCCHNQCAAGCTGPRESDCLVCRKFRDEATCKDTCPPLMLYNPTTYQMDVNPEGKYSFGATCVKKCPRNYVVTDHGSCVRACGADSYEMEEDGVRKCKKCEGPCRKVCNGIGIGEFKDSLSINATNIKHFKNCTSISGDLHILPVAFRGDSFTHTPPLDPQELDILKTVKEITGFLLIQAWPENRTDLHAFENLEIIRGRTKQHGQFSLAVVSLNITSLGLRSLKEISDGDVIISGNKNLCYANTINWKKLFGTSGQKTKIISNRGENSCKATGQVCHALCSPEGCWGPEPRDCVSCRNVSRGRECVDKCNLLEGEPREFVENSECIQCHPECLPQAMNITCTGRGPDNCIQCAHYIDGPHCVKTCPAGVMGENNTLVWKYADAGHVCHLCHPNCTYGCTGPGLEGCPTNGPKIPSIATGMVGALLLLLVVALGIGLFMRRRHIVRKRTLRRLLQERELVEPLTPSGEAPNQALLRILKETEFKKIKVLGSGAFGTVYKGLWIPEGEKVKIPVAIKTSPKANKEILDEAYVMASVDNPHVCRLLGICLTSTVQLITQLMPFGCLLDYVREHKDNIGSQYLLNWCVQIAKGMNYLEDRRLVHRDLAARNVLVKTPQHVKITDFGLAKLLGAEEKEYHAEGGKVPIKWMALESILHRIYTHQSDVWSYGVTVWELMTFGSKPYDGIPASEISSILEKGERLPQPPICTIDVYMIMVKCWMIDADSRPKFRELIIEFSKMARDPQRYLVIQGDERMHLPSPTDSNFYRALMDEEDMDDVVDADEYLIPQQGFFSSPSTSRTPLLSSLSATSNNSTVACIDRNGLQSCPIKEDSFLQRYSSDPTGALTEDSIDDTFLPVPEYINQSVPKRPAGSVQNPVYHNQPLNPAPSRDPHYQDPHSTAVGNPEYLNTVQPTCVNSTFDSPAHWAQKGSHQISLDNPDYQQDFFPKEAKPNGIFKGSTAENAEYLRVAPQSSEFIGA
Assay: EGFR degradation HTRF assay, HCC827 cells
Format: cell-based
Settings: HCC827, 16h treatment, maximum percentage of degradation
Property name: Dmax (%)
# number only, unit % dropped from output

Prompt: Dear colleague, I am looking for the recorded Dmax of the following compound: CN(c1ccccc1Nc1nc(Nc2ccc(N3CC4(CN(CCc5ccc(C6CCC(=O)NC6=O)cc5)C4)C3)c(F)c2)ncc1Cl)S(C)(=O)=O (centres unmarked) [Example 134]
Completion: 77.6

###

Biological target: EGFR L858R/T790M/C797S (BaF3-LTC cells) (Homo sapiens, UniProt P00533, C797S/L858R/T790M)
Construct: expressed in transfected cells; host or cells: BaF3
Experiment: EGFR degradation HTRF assay, BaF3-LTC cells
Type: cell-based
Conditions: BaF3-LTC, 16h treatment, maximum percentage of degradation; read-out: LTC Dmax (%)
molecules and their reported Dmax
# number only, unit % dropped from output

Molecule	Measure unit	Number
CCc1cc(Nc2ncc(Br)c(Nc3ccc4nccnc4c3P(C)(C)=O)n2)c(OC)cc1N1CCC(N2CCN(C[C@H]3C[C@H](N(C)c4cccc(C5CCC(=O)NC5=O)c4)C3)CC2)CC1 (some centres unmarked) [Example 307]	%	87.4
CCc1cc(Nc2ncc(Br)c(Nc3ccc4ncsc4c3P(C)(C)=O)n2)c(OC)cc1N1CCC(N2CCN(CCc3cc(F)c(C4CCC(=O)NC4=O)c(F)c3)CC2)CC1 (centres unmarked) [Example 714]	%	90.1
CCc1cc(Nc2ncc(Br)c(Nc3ccc4nccnc4c3P(C)(C)=O)n2)c(OC)cc1N1CCC(N2CCN(CCc3ccc(C4CCC(=O)NC4=O)c(F)c3)CC2)CC1 (centres unmarked) [Example 5]	%	90.4
CCc1cc(Nc2ncc(Br)c(Nc3ccc4nc(C)ccc4c3P(C)(C)=O)n2)c(OC)cc1N1CCC(N2CCN(CCc3ccc4c(c3)C3(CC3)C(=O)N4C3CCC(=O)NC3=O)CC2)CC1 (centres unmarked) [Example 710]	%	90.9

Now consider the entry below.
Prompt: Dear colleague, I am looking for the recorded Dmax of the following molecule: CCc1cc(Nc2ncc(Br)c(Nc3ccc4nccnc4c3P(C)(C)=O)n2)c(OC)cc1N1CCC(N2CCN(CCCCCc3ccc(C4CCC(=O)NC4=O)cc3)CC2)CC1 (centres unmarked) [Example 7]
Completion: 90.5

###

Tested on: EGFR Del19/T790M/C797S (BaF3-DTC cells)
Test: EGFR degradation HTRF assay, BaF3-DTC cells
Type: cell-based
Conditions: 16h treatment, maximum percentage of degradation
Property name: DTC Dmax (%)
# number only, unit % dropped from output

Sample records with DTC Dmax (%):
Molecule	Number
CCc1cc(Nc2ncc(Br)c(Nc3ccc4nccnc4c3P(C)(C)=O)n2)c(OC)cc1N1CCC(N2CCN(C(=O)[C@H]3CCN(c4ccc5c(c4)C(=O)N(C4CCC(=O)NC4=O)C5=O)C3)CC2)CC1 (some centres unmarked) [Example 66]	92.43
CCc1cc(Nc2ncc(Br)c(Nc3ccc4nccnc4c3P(C)(C)=O)n2)c(OC)cc1N1CCC(N2CCN(C3CN(c4cc(F)c(C5CCC(=O)NC5=O)c(F)c4)C3)CC2)CC1 (centres unmarked) [Example 302]	88.36
CCc1cc(Nc2ncc(Br)c(Nc3ccc4nc(C5CC5)ccc4c3P(C)(C)=O)n2)c(OC)cc1N1CCC(N2CCN(CC3CN(c4ccc5c(c4)CN(C4CCC(=O)NC4=O)C5=O)C3)CC2)CC1 (centres unmarked) [Example 426]	91.88
CCc1cc(Nc2ncc(Br)c(Nc3ccc4nc(C)ccc4c3P(C)(C)=O)n2)c(OC)cc1N1CCC(N2CCN(C(=O)C3CCN(c4ccc5c(c4)n(C)c(=O)n5C4CCC(=O)NC4=O)CC3)CC2)CC1 (centres unmarked) [Example 210]	92.69

Prompt: Fill in the recorded DTC Dmax (%) for this molecule, with EGFR Del19/T790M/C797S (BaF3-DTC cells) as test system: CCc1cc(Nc2ncc(Br)c(Nc3ccc4nc(C)ccc4c3P(C)(C)=O)n2)c(OC)cc1N1CCC(N2CCN(CCc3cc(F)c(C4CCC(=O)NC4=O)c(F)c3)CC2)CC1 (centres unmarked) [Example 314]
Completion: 91.87

###

compounds and their reported DTC Dmax (%)
Tested on: EGFR Del19/T790M/C797S (BaF3-DTC cells)
Experiment: EGFR degradation HTRF assay, BaF3-DTC cells
Assay type: cell-based
Conditions: 16h treatment, maximum percentage of degradation
# number only, unit % dropped from output

Sample records with DTC Dmax (%):
Compound	Tested on	DTC Dmax (%)
CCc1cc(Nc2ncc(Br)c(Nc3ccc4nccnc4c3P(C)(C)=O)n2)c(OC)cc1N1CCC(N2CCN(C[C@H]3CCN(c4ccc5c(c4)CN(C4CCC(=O)NC4=O)C5=O)C3)CC2)CC1 (some centres unmarked)	EGFR Del19/T790M/C797S (BaF3-DTC cells)	92.67
CCc1cc(Nc2ncc(Br)c(Nc3ccc4nccnc4c3P(C)(C)=O)n2)c(OC)cc1N1CCC(N2CCN(CC3CN(c4ccc5c(c4)C(=O)N(C4CCC(=O)NC4=O)C5)C3)CC2)CC1 (centres unmarked)	EGFR Del19/T790M/C797S (BaF3-DTC cells)	88.8
CCc1cc(Nc2ncc(Br)c(Nc3ccc4nccnc4c3P(C)(C)=O)n2)c(OC)cc1N1CCC(N2CCN(CCc3ccc(NC4CCC(=O)NC4=O)cc3)CC2)CC1 (centres unmarked)	EGFR Del19/T790M/C797S (BaF3-DTC cells)	92.6

Prompt: Dear colleague, I am looking for the recorded DTC Dmax (%) of the following compound: CCc1cc(Nc2ncc(Br)c(Nc3ccc4nccnc4c3P(C)(C)=O)n2)c(OC)cc1N1CCC(N2CCN(C[C@H]3C[C@H](N(C)c4ccc(C5CCC(=O)NC5=O)cc4)C3)CC2)CC1 (some centres unmarked)
Completion: 87.52

Prompt: Dear colleague, I am looking for the recorded DTC Dmax (%) of the following compound: CCc1cc(Nc2ncc(Br)c(Nc3ccc4ncn(C)c(=O)c4c3P(C)(C)=O)n2)c(OC)cc1N1CCC(N2CCN(C(=O)C3CCN(c4cc(F)c(C5CCC(=O)NC5=O)c(F)c4)C3)CC2)CC1 (centres unmarked)
Completion: 90.24

Prompt: Dear colleague, I am looking for the recorded DTC Dmax (%) of the following compound: CCc1cc(Nc2ncc(Br)c(Nc3ccc4c(=O)n(C)cnc4c3P(C)(C)=O)n2)c(OC)cc1N1CCC(N2CCN(CCC3CCN(c4cc(F)c(C5CCC(=O)NC5=O)c(F)c4)CC3)CC2)CC1 (centres unmarked)
Completion: 88.98

Prompt: Dear colleague, I am looking for the recorded DTC Dmax (%) of the following compound: COc1cc(N2CCN(C3CN(CCC4CCN(c5cc(F)c(C6CCC(=O)NC6=O)c(F)c5)CC4)C3)CC2)c(C)cc1Nc1ncc(Br)c(Nc2ccc3nccnc3c2P(C)(C)=O)n1 (centres unmarked)
Completion: 91.45

Prompt: Dear colleague, I am looking for the recorded DTC Dmax (%) of the following compound: CCc1cc(Nc2ncc(Br)c(Nc3ccc4nccnc4c3P(C)(C)=O)n2)c(OC)cc1N1CCC(N2CCN(CC3CCN(c4ccc5c(c4)CN(C4CCC(=O)NC4=O)C5=O)CC3)CC2)CC1 (centres unmarked)
Completion: 88.74
